Each record here notes measured IC50.
- measured-on: AR (Homo sapiens, UniProt P10275)
- assay: GeneBlazer assay, inhibition against AR activity
- Type: cell-based
- condition-summary: Table II

CCCCn1nnnc1CN1CCN(c2c(Cl)cncc2Cl)CC1
1710 nM
Oc1cccc(C(c2nnnn2Cc2ccccc2)N2CCN(c3c(Cl)cncc3Cl)CC2)c1 (stereo not shown)
134 nM
CC(C)(C)n1nnnc1C(c1cc2ccccc2[nH]1)N1CCN(c2c(Cl)cncc2Cl)CC1 (stereo not shown)
182 nM
CCCCn1nnnc1C(c1cc2ccccc2[nH]1)N1CCN(c2c(Cl)cncc2Cl)CC1 (stereo not shown)
381 nM
CCCCn1nnnc1C(c1cccc(O)c1)N1CCN(c2c(Cl)cccc2Cl)CC1 (stereo not shown)
1600 nM

Incoming: Determine its reported IC50: CCCCn1nnnc1C(c1cccc(O)c1)N1CCN(c2c(Cl)cncc2Cl)CC1 (stereo not shown)
Outgoing: 45.9 nM

Incoming: Given the compound CCCCn1nnnc1C(c1cccc(O)c1)N1CCN(c2cc(C)ccc2C)CC1 (stereo not shown) , write its reported IC50.
Outgoing: 790 nM

---

- measured-on: AR (Homo sapiens)
- assay: GeneBlazer assay, inhibition against AR activity
- Format: cell-based
- condition-summary: Table II
Quick reference: IC50 of the listed items.
Include the unit after the number when you answer.

Incoming: State, for AR (Homo sapiens), measured IC50 of the molecule listed here: CC(C)(C)n1nnnc1C(CCc1ccccc1)N1CCN(c2c(Cl)cncc2Cl)CC1 (stereo not shown)
Outgoing: 1280 nM

Incoming: // fetch IC50 for CCCCn1nnnc1C(c1ccnc2ccccc12)N1CCN(c2c(Cl)cncc2Cl)CC1 (stereo not shown) ; system: AR (Homo sapiens)
Outgoing: 523 nM

Incoming: Give IC50 only, for CCCCn1nnnc1C(c1cccc(O)c1)N1CCN(c2ncc(C(F)(F)F)cc2Cl)CC1 (stereo not shown) , using AR (Homo sapiens) data.
Outgoing: 2270 nM

Incoming: Name the value of IC50 reported for CC(C)(C)n1nnnc1C(c1cc2ccccc2o1)N1CCN(c2c(Cl)cncc2Cl)CC1 (stereo not shown) when tested on AR (Homo sapiens).
Outgoing: 557 nM

---

- measured-on: AR (Homo sapiens)
- Sequence (P10275 669-920 limits assumed): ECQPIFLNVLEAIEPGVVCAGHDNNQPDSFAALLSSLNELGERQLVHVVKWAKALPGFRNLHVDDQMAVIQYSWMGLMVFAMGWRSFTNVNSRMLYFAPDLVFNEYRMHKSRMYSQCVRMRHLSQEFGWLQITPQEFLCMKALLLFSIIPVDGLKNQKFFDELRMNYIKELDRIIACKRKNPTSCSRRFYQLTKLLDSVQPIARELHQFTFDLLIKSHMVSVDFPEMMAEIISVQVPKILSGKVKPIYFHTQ
- assay: GeneBlazer assay, inhibition against AR activity
- Format: cell-based
- condition-summary: 10 uM; Table II
readout-label: inhibition at 10 µM (%)
Numbers only; they are read as %.

Past entries and their recorded results:
Oc1cccc(CN2CCN(c3c(Cl)cncc3Cl)CC2)c1
68.1
CC(C)(C)n1nnnc1C(c1ccnc2ccccc12)N1CCN(c2c(Cl)cncc2Cl)CC1 (centres unmarked)
108
CCCCn1nnnc1C(c1cccc(O)c1)N1CCN(c2cccc(C)c2C)CC1 (centres unmarked)
106
Cc1cccc(C)c1-n1nnnc1C(c1cccc(O)c1)N1CCN(c2c(Cl)cncc2Cl)CC1 (centres unmarked)
111
CCCCn1nnnc1C(c1cc2ccccc2o1)N1CCN(c2c(Cl)cncc2Cl)CC1 (centres unmarked)
96.8

Incoming: Answer with the recorded inhibition at 10 µM of CC(C)(C)n1nnnc1C(c1cccs1)N1CCN(c2c(Cl)cncc2Cl)CC1 (centres unmarked) only.
Outgoing: 104

Incoming: Note down inhibition at 10 µM recorded for CC(C)(C)n1nnnc1C(c1cc2ccccc2o1)N1CCN(c2c(Cl)cncc2Cl)CC1 (centres unmarked)
Outgoing: 108

Incoming: Report inhibition at 10 µM, nothing else, for this molecule: CCCCn1nnnc1C(c1cccc(O)c1)N1CCN(C/C=C/c2ccccc2)CC1 (centres unmarked)
Outgoing: 11.9

---

- measured-on: AR (Homo sapiens, UniProt P10275)
- assay: GeneBlazer assay, inhibition against AR activity
- Format: cell-based
- condition-summary: 10 uM; Table II
// reported inhibition at 10 µM for each item listed
The reply should contain only the number, in %.

Incoming: Answer with reported inhibition at 10 µM of "Clc1cncc(Cl)c1N1CCN(Cc2cc3ccccc3o2)CC1"
Outgoing: 101

Incoming: Recall and state the measured inhibition at 10 µM for COC(=O)Cn1nnnc1C(c1cccc(O)c1)N1CCN(c2c(Cl)cncc2Cl)CC1 (centres unmarked) .
Outgoing: 72.4

Incoming: Give inhibition at 10 µM for the following molecule: CCCCn1nnnc1C(c1cccc(O)c1)N1CCN(c2ccc(C(C)=O)cc2)CC1 (centres unmarked)
Outgoing: 47.9

Incoming: Could you please provide reported inhibition at 10 µM for CCCCn1nnnc1C(CCc1ccccc1)N1CCN(c2c(Cl)cncc2Cl)CC1 (centres unmarked) ? Thanks!
Outgoing: 96

Incoming: Identify inhibition at 10 µM associated with the molecule CC(C)(C)n1nnnc1C(c1cccc(O)c1)N1CCN(C/C=C/c2ccccc2)CC1 (centres unmarked)
Outgoing: 17.2

Incoming: Given the molecule CCCCn1nnnc1C(c1cccc(O)c1)N1CCN(c2cccc(C(F)(F)F)n2)CC1 (centres unmarked) , write its reported inhibition at 10 µM.
Outgoing: 58.4

---

- measured-on: AR (Homo sapiens, UniProt P10275)
- Sequence (P10275 669-920 limits assumed): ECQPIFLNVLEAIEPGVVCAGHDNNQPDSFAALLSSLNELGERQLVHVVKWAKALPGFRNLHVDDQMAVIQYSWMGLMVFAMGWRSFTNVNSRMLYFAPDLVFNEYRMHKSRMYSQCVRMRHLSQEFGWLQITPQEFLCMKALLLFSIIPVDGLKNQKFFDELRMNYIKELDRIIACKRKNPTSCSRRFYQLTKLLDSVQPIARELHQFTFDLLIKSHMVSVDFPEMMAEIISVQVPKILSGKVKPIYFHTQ
- assay: GeneBlazer assay, inhibition against AR activity
- Format: cell-based
- condition-summary: 10 uM; Table II
Each entry below carries its reported inhibition at 10 µM.
Don't forget the unit after the value.

Incoming: Tell us which inhibition at 10 µM value is on record for CC(C)(C)n1nnnc1C(c1cc2ccccc2[nH]1)N1CCN(c2c(Cl)cncc2Cl)CC1 (stereo not drawn)
Outgoing: 114%

Incoming: Provide inhibition at 10 µM value for the following compound: Oc1cccc(C(c2nnnn2C2CCCCC2)N2CCN(c3c(Cl)cncc3Cl)CC2)c1 (stereo not drawn)
Outgoing: 110%

Incoming: Give inhibition at 10 µM for the following compound: CCCCn1nnnc1C(c1cccc(O)c1)N1CCN(C(=O)OC(C)(C)C)CC1 (stereo not drawn)
Outgoing: 24.6%

Incoming: Tell us which inhibition at 10 µM value is on record for CCCCn1nnnc1C(c1ccccc1)N1CCN(c2c(Cl)cncc2Cl)CC1 (stereo not drawn)
Outgoing: 101%

Incoming: State its inhibition at 10 µM: CCCCn1nnnc1C(c1cccs1)N1CCN(c2c(Cl)cncc2Cl)CC1 (stereo not drawn)
Outgoing: 98.2%

Incoming: Supply recorded inhibition at 10 µM for CCCCn1nnnc1C(c1cccc(O)c1)N1CCN(c2ccc(F)cc2)CC1 (stereo not drawn) here.
Outgoing: 51.3%

---

Each entry below lists one item and its recorded inhibition at 10 µM value.
- measured-on: AR (Homo sapiens, UniProt P10275)
- assay: GeneBlazer assay, inhibition against AR activity
- Type: cell-based
- condition-summary: 10 uM; Table II
Answer with a number only, understood to be in %.

CCCCn1nnnc1C(c1cccc(O)c1)N1CCN(c2c(Cl)cncc2Cl)CC1 (centres unmarked) [Compound 1]
81.5
CCCCn1nnnc1C(c1cccc(O)c1)N1CCN(c2ccccn2)CC1 (centres unmarked) [Compound 62]
19.9
CC(C)(C)n1nnnc1C(c1ccc(C#N)cc1)N1CCN(c2c(Cl)cncc2Cl)CC1 (centres unmarked) [Compound 35]
106
CCCCn1nnnc1C(c1cccc(F)c1)N1CCN(c2c(Cl)cncc2Cl)CC1 (centres unmarked) [Compound 8]
95.3
CCCCn1nnnc1C(c1ccncc1)N1CCN(c2c(Cl)cncc2Cl)CC1 (centres unmarked) [Compound 30]
100

Incoming: Look up inhibition at 10 µM of CCCCn1nnnc1C(c1cccc(O)c1)N1CCN(c2ccncc2)CC1 (centres unmarked) [Compound 27] and report it.
Outgoing: 1.04

Incoming: Return value of inhibition at 10 µM for input CCCCn1nnnc1C(c1cccc(OC)c1)N1CCN(c2c(Cl)cncc2Cl)CC1 (centres unmarked) [Compound 7] , no commentary.
Outgoing: 108

Incoming: Hello, please tell me recorded inhibition at 10 µM for this one: Oc1cccc(C(c2nnnn2C2CCCC2)N2CCN(c3c(Cl)cncc3Cl)CC2)c1 (centres unmarked) [Compound 17]
Outgoing: 108

Incoming: Please give measured inhibition at 10 µM of the following entry: CC(C)n1nnnc1C(c1ccnc2ccccc12)N1CCN(c2c(Cl)cncc2Cl)CC1 (centres unmarked) [Compound 51]
Outgoing: 101

Incoming: Consider the molecule CCCCn1nnnc1C(c1cccc2ccccc12)N1CCN(c2c(Cl)cncc2Cl)CC1 (centres unmarked) [Compound 38] . State its measured inhibition at 10 µM.
Outgoing: 97.6

Incoming: Supply inhibition at 10 µM value. Item: CC(C)(C)n1nnnc1C(c1ccc2ccccc2c1)N1CCN(c2c(Cl)cncc2Cl)CC1 (centres unmarked) [Compound 41]
Outgoing: 108

Incoming: Return the recorded inhibition at 10 µM value; entry: CCCCn1nnnc1C(c1cccc(O)c1)N1CCN(c2c(C)cccc2C)CC1 (centres unmarked) [Compound 55]
Outgoing: 109

Incoming: Look up and state reported inhibition at 10 µM for CCCCn1nnnc1CN1CCN(c2c(Cl)cncc2Cl)CC1 [Compound 5]
Outgoing: 95.2

Incoming: Please report the measured inhibition at 10 µM for CCCCn1nnnc1C(c1ccc(C)o1)N1CCN(c2c(Cl)cncc2Cl)CC1 (centres unmarked) [Compound 48]
Outgoing: 100

Incoming: Read off the recorded inhibition at 10 µM for CCCCn1nnnc1C(c1ccc(OC)cc1)N1CCN(c2c(Cl)cncc2Cl)CC1 (centres unmarked) [Compound 32]
Outgoing: 91.6

Incoming: Let me know recorded inhibition at 10 µM for CC(C)(C)n1nnnc1C(/C=C/c1ccccc1)N1CCN(c2c(Cl)cncc2Cl)CC1 (centres unmarked) [Compound 43] , thanks.
Outgoing: 111

Incoming: # return recorded inhibition at 10 µM for input CCCCNC(=O)C(c1cccc(O)c1)N1CCN(c2c(Cl)cncc2Cl)CC1 (centres unmarked) [Compound 21]
Outgoing: 93
